target: MERTK (UniProt Q12866); assay: phosphorylation enrichment, bacterial display (enrichment ratio); higher = better substrate or ligand; peptides without Tyr show the background;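 further: 11-residue human phosphosite peptides and single-mutation variants displayed on the E. coli surface, counted by deep sequencing, each peptide's frequency after selection divided by its frequency in the unselected input library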;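 further: frequency after pTyr selection over input frequency; kinase dosed for 20-30% of maximal phosphorylation in three min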
Sequence (Q12866 whole entry, looked up): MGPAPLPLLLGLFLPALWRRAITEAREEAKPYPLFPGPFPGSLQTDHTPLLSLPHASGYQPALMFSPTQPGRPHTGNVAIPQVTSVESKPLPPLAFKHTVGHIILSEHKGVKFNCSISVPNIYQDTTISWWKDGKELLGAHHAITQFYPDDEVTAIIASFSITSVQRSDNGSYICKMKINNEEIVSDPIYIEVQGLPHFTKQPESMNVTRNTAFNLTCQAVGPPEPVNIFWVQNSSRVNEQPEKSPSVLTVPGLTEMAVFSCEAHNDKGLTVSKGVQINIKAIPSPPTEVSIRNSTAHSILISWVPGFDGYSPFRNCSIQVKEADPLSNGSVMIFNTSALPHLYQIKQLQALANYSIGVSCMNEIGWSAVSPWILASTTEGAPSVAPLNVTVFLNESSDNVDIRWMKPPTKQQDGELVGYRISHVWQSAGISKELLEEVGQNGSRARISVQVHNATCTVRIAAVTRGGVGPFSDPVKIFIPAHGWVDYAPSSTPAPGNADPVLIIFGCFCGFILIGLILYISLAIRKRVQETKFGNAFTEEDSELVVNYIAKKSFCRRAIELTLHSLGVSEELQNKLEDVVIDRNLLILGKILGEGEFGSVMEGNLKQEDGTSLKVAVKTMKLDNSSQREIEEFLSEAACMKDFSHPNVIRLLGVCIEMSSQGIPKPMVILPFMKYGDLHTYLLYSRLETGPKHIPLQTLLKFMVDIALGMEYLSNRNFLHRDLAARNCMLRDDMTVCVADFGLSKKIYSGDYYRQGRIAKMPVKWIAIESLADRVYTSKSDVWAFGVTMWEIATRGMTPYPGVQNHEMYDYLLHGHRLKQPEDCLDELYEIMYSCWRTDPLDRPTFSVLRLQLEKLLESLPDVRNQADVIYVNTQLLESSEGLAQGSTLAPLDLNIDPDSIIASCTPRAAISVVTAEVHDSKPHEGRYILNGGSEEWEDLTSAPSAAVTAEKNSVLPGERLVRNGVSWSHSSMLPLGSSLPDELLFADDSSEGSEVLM
RESULT_TYPE: phosphorylation enrichment
When you answer, write just the number.

Query block: What measured phosphorylation enrichment goes with KKIMGYSIRTI [IDS_Y490_I485K] ?
Result block: 0.366

Query block: What measured phosphorylation enrichment goes with FPPISYLNAIS [MVD_Y276] ?
Result block: 0.49

Query block: What measured phosphorylation enrichment goes with SSMIDYNPLEK [MYOC_Y479] ?
Result block: 0.463

Query block: What measured phosphorylation enrichment goes with GREEFYVHYVG [KAT8_Y90] ?
Result block: 0.422

Query block: What measured phosphorylation enrichment goes with RFGKVYKAHLF [ROR2_Y488_G490A] ?
Result block: 0.509

Query block: What measured phosphorylation enrichment goes with CEAMEYPESKQ [BTK_Y511_L512P] ?
Result block: 0.46

Query block: What measured phosphorylation enrichment goes with NDLMEYAKQHG [ASS1_Y163] ?
Result block: 0.426

Query block: What measured phosphorylation enrichment goes with EPAVLYNLKDR [MYH7_Y103] ?
Result block: 0.473

Query block: What measured phosphorylation enrichment goes with KQFWRYFAGNL [SLC25A4_Y112] ?
Result block: 0.542

Query block: What measured phosphorylation enrichment goes with SLDLSYFPTSS [EMD_Y181_YF] ?
Result block: 0.56

Query block: What measured phosphorylation enrichment goes with KLNNEHLELNY [MME_Y497_Y497H] ?
Result block: 0.395

Query block: What measured phosphorylation enrichment goes with PYSNSYENSLI [EPOR_Y489_P488S] ?
Result block: 0.552

Query block: What measured phosphorylation enrichment goes with LLQAEYWHDPI [PPT1_Y185_V181L] ?
Result block: 0.726

Query block: What measured phosphorylation enrichment goes with TIQSMYGCDVG [HLA-B_Y123_L119I] ?
Result block: 0.559

Query block: What measured phosphorylation enrichment goes with RFLKDYGEFEV [GINS1_Y156_C152Y_YF] ?
Result block: 0.778

Query block: What measured phosphorylation enrichment goes with KIVFVYVKKRS [DNAI2_Y7_E2K_YF] ?
Result block: 0.354

Query block: What measured phosphorylation enrichment goes with AMGPVYQAAAL [HYOU1_Y421_A419P] ?
Result block: 1.03

Query block: What measured phosphorylation enrichment goes with EEQKKNFNAMK [SCN5A_Y1494_Y1494N_YF] ?
Result block: 0.409

Query block: What measured phosphorylation enrichment goes with IEPGIYIPEDD [XPNPEP3_Y455] ?
Result block: 0.558
